- Target Or Test System: BRD4 (BD1) (Homo sapiens, UniProt O60885)
- Construct: His; made in house
- Protocol Notes: BRD4 AlphaLisa binding assay
- Setup Conditions: BRD4 (BD1) 30 nM, biotinylated H4-tetraacetyl peptide 200 nM; read-out: BRD4 AlphaLisa
Reported Property: IC50

INSERT INTO measurements (compound, value) VALUES
  ('Cc1nnc2n1-c1ccccc1N(c1ccc(Cl)cc1)C(C)C2 (stereo not drawn)', '100 to 1000 nM'),
  ('Cc1nnc2n1-c1ccc(-c3cnn(C)c3)cc1N(c1ccc(C#N)cc1)C[C@H]2C', '< 100 nM'),
  ('Cc1nnc2n1-c1ccc(-c3ccc(=O)[nH]c3)cc1N(c1ccc(Cl)cn1)C[C@H]2C', '100 to 1000 nM'),
  ('Cc1nnc2n1-c1ccc(Br)cc1N(c1ccc(Cl)cc1)C[C@@H]2C', '1000 to 10000 nM'),
  ('Cc1nnc2n1-c1ccc(-c3cnn(C)n3)cc1N(c1ccc(S(C)(=O)=O)cc1)C[C@@H]2C', '100 to 1000 nM');

Look up and report IC50, with BRD4 (BD1) (Homo sapiens, UniProt O60885) as system, for "Cc1nnc2n1-c1ccc(C(N)=O)cc1N(c1ccc(Cl)cc1)C[C@H]2C"
< 100 nM

Look up and report IC50, with BRD4 (BD1) (Homo sapiens, UniProt O60885) as system, for "Cc1nnc(-c2ccc3c(c2)N(c2ccc(Cl)cc2)C[C@@H](C)c2nnc(C)n2-3)o1"
< 100 nM

Look up and report IC50, with BRD4 (BD1) (Homo sapiens, UniProt O60885) as system, for "Cc1ccc(-c2ccc3c(c2)N(c2ccc(Cl)cc2)C[C@H](C)c2nnc(C)n2-3)cn1"
1000 to 10000 nM

Look up and report IC50, with BRD4 (BD1) (Homo sapiens, UniProt O60885) as system, for "Cc1nnc2n1-c1ccc(-c3ccc(N)nc3)cc1N(C)CC2"
1000 to 10000 nM

Look up and report IC50, with BRD4 (BD1) (Homo sapiens, UniProt O60885) as system, for "Cc1nnc2n1-c1ccc(Br)cc1N(c1ccc(S(C)(=O)=O)cc1)C[C@H]2C"
1000 to 10000 nM

Look up and report IC50, with BRD4 (BD1) (Homo sapiens, UniProt O60885) as system, for "Cc1nnc2n1-c1ccc(C(=O)N3CCCC3)cc1N(c1ccc(Cl)cc1)C[C@H]2C"
100 to 1000 nM

Look up and report IC50, with BRD4 (BD1) (Homo sapiens, UniProt O60885) as system, for "Cc1c(-c2ccc3c(c2)N(c2ccc(Cl)cc2)C[C@@H](C)c2nnc(C)n2-3)cnn1C"
< 100 nM

Look up and report IC50, with BRD4 (BD1) (Homo sapiens, UniProt O60885) as system, for Cc1nnc2n1-c1ccc(-c3ccc(N)nc3)cc1N(c1ccc(Cl)cc1)CC2C (stereo not drawn)
< 100 nM

Look up and report IC50, with BRD4 (BD1) (Homo sapiens, UniProt O60885) as system, for "Cc1nnc2n1-c1ccc(-c3ccc(N)nc3)cc1N(c1ccc(C(F)(F)F)cc1)CC2"
< 100 nM

Look up and report IC50, with BRD4 (BD1) (Homo sapiens, UniProt O60885) as system, for "Cc1nnc2n1-c1ccccc1N(c1ccc(Cl)cc1)CC21CC1"
100 to 1000 nM

Look up and report IC50, with BRD4 (BD1) (Homo sapiens, UniProt O60885) as system, for "Cc1nnc2n1-c1ccc(-c3ccc(=O)[nH]c3)cc1N(c1ccc(S(C)(=O)=O)cc1)C[C@H]2C"
100 to 1000 nM

Look up and report IC50, with BRD4 (BD1) (Homo sapiens, UniProt O60885) as system, for "Cc1nnc2n1-c1ccc(-c3cnn(C)n3)cc1N(c1ccc(C#N)cc1)C[C@H]2C"
< 100 nM

Look up and report IC50, with BRD4 (BD1) (Homo sapiens, UniProt O60885) as system, for "Cc1ncn(-c2ccc3c(c2)N(c2ccc(Cl)cc2)C[C@@H](C)c2nnc(C)n2-3)n1"
< 100 nM

Look up and report IC50, with BRD4 (BD1) (Homo sapiens, UniProt O60885) as system, for "Cc1nnc2n1-c1ccc(-c3ccc(N)nc3)cc1N(c1ccc(Cl)cc1)C[C@@H]2C"
100 to 1000 nM

Look up and report IC50, with BRD4 (BD1) (Homo sapiens, UniProt O60885) as system, for "Cc1nnc2n1-c1ccc(-c3ccc(N)nc3)cc1N(c1ccc(Cl)cc1)CC2"
< 100 nM
